Assay: Associated plasma PK in the LU5269 xenograft study
Assay type: in vivo, NOD/SCID mice
Conditions: mouse, 75 mg/kg; 75mpk, PO, QD*21, plasma after the last administration
Measurement Name: AUC(0-t) (ng·h/mL)

> print(dat)
                            compound.string  result
1  CN1CC[C@@H](Nc2cccc3c(CC(F)(F)F)c(C#CCNC(=O)c4cnn(C(C)(C)C)c4N)nn23)[C@@H](F)C1   24400

---

# reported pIC50; entries follow
Target: CYP 3A4 enzyme in human liver microsomes (Homo sapiens, UniProt P08684)
Assay: CYP3A4 inhibition experiment in human liver microsomes
Conditions: CYP 3A4M IC50, human liver microsomes, midazolam as substrate
pIC50: −log10 of the molar value.
Measurement Name: pIC50

> print(dat)
                            compound.string                             target.system  value.operator  result
1  COCCn1ccc(C(=O)NCC#Cc2nn3c(N[C@@H]4CCN(C)C[C@@H]4F)cccc3c2CC(F)(F)F)c1  CYP 3A4 enzyme in human liver microsomes (Homo sapiens, UniProt P08684)               =    4.74
2  CCN1CC[C@@H](Nc2cccc3c(CC(F)(F)F)c(C#CCNC(=O)c4cnn(C(C)(C)C)c4N)nn23)[C@@H](F)C1  CYP 3A4 enzyme in human liver microsomes (Homo sapiens, UniProt P08684)               =    4.65
3  COC(C)(C)Cn1cc(C(=O)NCC#Cc2nn3c(N[C@@H]4CCN(C)C[C@@H]4F)cccc3c2CC(F)(F)F)cn1  CYP 3A4 enzyme in human liver microsomes (Homo sapiens, UniProt P08684)               =    4.69
4  CN1CC[C@@H](Nc2cccc3c(CC(F)(F)F)c(C#CCNC(=O)c4cc5n(c4)CCOC5)nn23)[C@@H](F)C1  CYP 3A4 enzyme in human liver microsomes (Homo sapiens, UniProt P08684)               <    4.52

---

Assay: Pharmacokinetic study in beagles
Format: in vivo
Conditions: dog, plasma, 2 mg/kg, PO 2mpk
Measurement Name: Cmax (ng/mL)

> print(dat)
                                   compound  result
1  CN1CC[C@@H](Nc2cccc3c(CC(F)(F)F)c(C#CCNC(=O)c4cnn(C(C)(C)C)c4N)nn23)[C@@H](F)C1 [Compound 047]     199

---

Assay: Associated plasma PK in the LU5269 xenograft study
Format: in vivo, NOD/SCID mice
Settings: mouse, 50 mg/kg; 50mpk, PO, QD*21, plasma after the last administration
Measurement Name: Cmax (µg/mL)

> print(dat)
                                   compound  measurement.name  measurement.unit  result
1  CN1CC[C@@H](Nc2cccc3c(CC(F)(F)F)c(C#CCNC(=O)c4cnn(C(C)(C)C)c4N)nn23)[C@@H](F)C1 [Compound 047]              Cmax             µg/mL    1.69

---

Target: PXR (Homo sapiens)
Construct: expressed in transfected cells; host or cells: DPX2 cells
Test: PXR activity test in DPX2 cells (luciferase)
Format: cell-based
Conditions: Concentration 1 (µM per method); positive control rifampicin
# reported Percentage relative to positive control; entries follow
Measurement Name: Percentage relative to positive control (%)

> print(dat)
                                   molecule  result
1  CNC(=O)c1ccc(NCC#Cc2cc3c(N[C@@H]4CCN(C)C[C@@H]4F)cccc3n2CC(F)(F)F)c(OC)c1 [Control compound, reference compound]    8.61
2  CN1CC[C@@H](Nc2cccc3c(CC(F)(F)F)c(C#CCNC(=O)c4cnn(C(C)(C)C)c4)nn23)[C@@H](F)C1 [Compound 001]    8.07
3  CCn1ncc(C(=O)NCC#Cc2nn3c(N[C@@H]4CCN(C)C[C@@H]4F)cccc3c2CC(F)(F)F)c1N [Compound 261]    4.48
4  CN1CC[C@@H](Nc2cccc3c(CC(F)(F)F)c(C#CCNC(=O)c4cnn(C(C)(C)C)c4N)nn23)[C@@H](F)C1 [Compound 047]    5.67

---

Assay: Pharmacokinetic study in SD rats
Type: in vivo
Conditions: rat, plasma, 300 mg/kg, po 300 mpk, read-out: AUC0-24h
Measurement Name: AUC(0-t) (µg·h/mL)

> print(dat)
                                   compound  result
1  CNC(=O)c1ccc(NCC#Cc2cc3c(N[C@@H]4CCN(C)C[C@@H]4F)cccc3n2CC(F)(F)F)c(OC)c1 [Control compound, reference compound]     416

---

Target: PXR (Homo sapiens)
Construct: expressed in transfected cells; host or cells: DPX2 cells
Assay: PXR activity test in DPX2 cells (luciferase)
Format: cell-based
Details: Concentration 10 (µM per method), DPX2 cells, 24 h
Measurement Name: Activation fold

> print(dat)
                                   compound  result
1  CN1CC[C@@H](Nc2cccc3c(CC(F)(F)F)c(C#CCNC(=O)c4cnn(C(C)(C)C)c4)nn23)[C@@H](F)C1    3.05
2  CN1CC[C@@H](Nc2cccc3c(CC(F)(F)F)c(C#CCNC(=O)c4cnn(C(C)(C)C)c4N)nn23)[C@@H](F)C1    2.66
3  CCn1ncc(C(=O)NCC#Cc2nn3c(N[C@@H]4CCN(C)C[C@@H]4F)cccc3c2CC(F)(F)F)c1N    1.43
4  CNC(=O)c1ccc(NCC#Cc2cc3c(N[C@@H]4CCN(C)C[C@@H]4F)cccc3n2CC(F)(F)F)c(OC)c1 [Control compound, reference compound]    8.58

---

Target: p53-Y220C mutant protein (Homo sapiens, UniProt P04637, Y220C)
Construct: The recombinant Y220C p53 DBD protein with his-tag
Assay: In vitro DNA binding activity assay (TR-FRET)
Assay type: biochemical
Settings: concentration required to increase the binding activity of protein to DNA by 50%
Measurement Name: SC150 (nM)

> print(dat)
                                    compound                             target.system  measurement.name  measurement.unit  result
 1  CN1CC[C@@H](Nc2cccc3c(CC(F)(F)F)c(C#CCNC(=O)c4cn(C5CC5)nc4N)nn23)[C@@H](F)C1  p53-Y220C mutant protein (Homo sapiens, UniProt P04637, Y220C)             SC150                nM      13
 2  CN1CC[C@@H](Nc2cccc3c(CC(F)(F)F)c(C#CCNC(=O)c4ccn(C(C)(C)C)c4)nn23)[C@@H](F)C1  p53-Y220C mutant protein (Homo sapiens, UniProt P04637, Y220C)             SC150                nM      19
 3  CN1CC[C@@H](Nc2cccc3c(CC(F)(F)F)c(C#CCNC(=O)c4ccccn4)nn23)[C@@H](F)C1  p53-Y220C mutant protein (Homo sapiens, UniProt P04637, Y220C)             SC150                nM      95
 4  Cc1nn(C(C)(C)C)c(N)c1C(=O)NCC#Cc1nn2c(N[C@@H]3CCN(C)C[C@@H]3F)cccc2c1CC(F)(F)F  p53-Y220C mutant protein (Homo sapiens, UniProt P04637, Y220C)             SC150                nM      69
 5  CN1CC[C@@H](Nc2cccc3c(CC(F)(F)F)c(C#CCNC(=O)c4ncn(C(C)(C)C)c4N)nn23)[C@@H](F)C1  p53-Y220C mutant protein (Homo sapiens, UniProt P04637, Y220C)             SC150                nM      19
 6  CN1CC[C@@H](Nc2cccc3c(CC(F)(F)F)c(C#CCNC(=O)c4cc(C#N)n(C)c4)nn23)[C@@H](F)C1  p53-Y220C mutant protein (Homo sapiens, UniProt P04637, Y220C)             SC150                nM      23
 7  CN1CC[C@@H](Nc2cccc3c(CC(F)(F)F)c(C#CCNC(=O)c4ccn(C5CC5)c4)nn23)[C@@H](F)C1  p53-Y220C mutant protein (Homo sapiens, UniProt P04637, Y220C)             SC150                nM      16
 8  CN1CC[C@@H](Nc2cccc3c(CC(F)(F)F)c(C#CCNC(=O)c4cc(Cl)n(C)c4)nn23)[C@@H](F)C1  p53-Y220C mutant protein (Homo sapiens, UniProt P04637, Y220C)             SC150                nM      28
 9  CN1CC[C@@H](Nc2cccc3c(CC(F)(F)F)c(C#CCNC(=O)c4cnn(CC(C)(C)C)c4N)nn23)[C@@H](F)C1  p53-Y220C mutant protein (Homo sapiens, UniProt P04637, Y220C)             SC150                nM      23
10  CN1CCCC(Nc2cccc3c(CC(F)(F)F)c(C#CCNC(=O)c4cnn(C(C)(C)C)c4N)nn23)CC1 (single isomer, unassigned) [Compound 369-A]  p53-Y220C mutant protein (Homo sapiens, UniProt P04637, Y220C)             SC150                nM       8
11  COc1ccc(C(=O)NCC#Cc2nn3c(N[C@@H]4CCN(C)C[C@@H]4F)cccc3c2CC(F)(F)F)cn1  p53-Y220C mutant protein (Homo sapiens, UniProt P04637, Y220C)             SC150                nM      46
12  CN1CC[C@@H](Nc2cccc3c(CC(F)(F)F)c(C#CCNC(=O)c4cccc(F)c4)nn23)[C@@H](F)C1  p53-Y220C mutant protein (Homo sapiens, UniProt P04637, Y220C)             SC150                nM      92
13  Cc1ccc(C(=O)NCC#Cc2nn3c(N[C@@H]4CCN(C)C[C@@H]4F)cccc3c2CC(F)(F)F)c(N)n1  p53-Y220C mutant protein (Homo sapiens, UniProt P04637, Y220C)             SC150                nM      45

Cited source for all entries: patent EP4737449A1
